Biological target: T1, APBA1_2, Q02410
T1 sequence (Q02410 742-832, limits assumed, looked up): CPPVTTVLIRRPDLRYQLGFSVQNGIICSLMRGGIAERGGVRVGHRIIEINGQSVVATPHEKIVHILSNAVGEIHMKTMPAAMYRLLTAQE
Assay: holdup assay
Set-up: key: below the threshold = too weak to quantify, mostly under pKd 3.1 to 4
Details: plain residues with an end cap or a label only (N-terminal biotin on a linker: ado-ado)
metric.name: pKd

INSERT INTO measurements (binder, metric_name, reported_measurement) VALUES
  ('RRRESYSTTV [EVI5, O60447]', 'pKd', 3.74),
  ('GSGAVEMESV [AQP6, Q13520]', 'pKd', 3.58),
  ('LKVPPEERLI [CRB2, Q5IJ48]', 'pKd', 'below the threshold'),
  ('VNKSKLLTDV [KCNA1, Q09470]', 'pKd', 3.56),
  ('LSEFKAMDSI [CTNNA1, P35221]', 'pKd', 'below the threshold'),
  ('LGRSTPQSEV [DGKH, Q86XP1]', 'pKd', 3.64),
  ('DDPSTAETVL [ABCA7, Q8IZY2]', 'pKd', 'below the threshold'),
  ('QMNQTLPVQV [EPHB3, P54753]', 'pKd', 4.8),
  ('YLEPVLSSEL [ATP2A2, P16615;P16615-3]', 'pKd', 'below the threshold'),
  ('IKAIVDLTGL [TRAF2, Q12933]', 'pKd', 'below the threshold'),
  ('DDENIRTSDV [PLEKHA2, Q9HB19]', 'pKd', 'below the threshold'),
  ('QSLNRMEYIV [JAG1, P78504]', 'pKd', 'below the threshold'),
  ('MLSKQSESAI [FLVCR1, Q9Y5Y0]', 'pKd', 'below the threshold'),
  ('KSGKQTMLVV [TRIM29, Q14134;Q14134-2]', 'pKd', 'below the threshold'),
  ('QSPANIYYKV [EFNB1, P52799]', 'pKd', 'below the threshold'),
  ('KKMPSIESDV [GRIN2A, Q12879]', 'pKd', 'below the threshold'),
  ('TSSMRGMDAV [RSRC2, Q7L4I2]', 'pKd', 3.86),
  ('RKPKPSSSCC [RAB9A, P51151]', 'pKd', 'below the threshold'),
  ('PEYLGLDVPV [ERBB2, P04626]', 'pKd', 'below the threshold'),
  ('QKNRKAQEDL [CES3, Q6UWW8]', 'pKd', 'below the threshold');
